TARGET DESC: T1, Len(1-22) monomer peptide (Homo sapiens (Human), UniProt P06312 21-42)
T1 construct: Analyte in SPR; on beads in the pulldown assay; also called Vκ4(LEN(1-22) beads)
T1 peptide: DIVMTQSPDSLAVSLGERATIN
RUN DESCRIPTION: SPR, antibody as ligand, peptide as analyte
OBSERVABLE: log10 of kon (log10 of the value in M⁻¹ s⁻¹)
Please be aware that the numbers have been log10-transformed from kon in M⁻¹ s⁻¹.

log10 of kon for VH9 + VL4-N33S (antibody, V domains shown, Humanized 11-1F4 variant) VH: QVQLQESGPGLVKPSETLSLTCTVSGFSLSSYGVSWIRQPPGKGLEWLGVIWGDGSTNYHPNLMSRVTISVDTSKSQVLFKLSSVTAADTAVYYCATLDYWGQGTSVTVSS VL: DVVMTQSPLSLPVTLGQPASISCRSSQSLVHRSGNTYLHWFQQRPGQSPRLLIYKVSNRFSGVPDRFSGSGSGTDFTLKISRVEAEDVGVYFCFQTTYVPNTFGGGTKLEIK ?
4.16

log10 of kon for VH9-M64I + VL4 (antibody, V domains shown, Humanized 11-1F4 variant) VH: QVQLQESGPGLVKPSETLSLTCTVSGFSLSSYGVSWIRQPPGKGLEWLGVIWGDGSTNYHPNLISRVTISVDTSKSQVLFKLSSVTAADTAVYYCATLDYWGQGTSVTVSS VL: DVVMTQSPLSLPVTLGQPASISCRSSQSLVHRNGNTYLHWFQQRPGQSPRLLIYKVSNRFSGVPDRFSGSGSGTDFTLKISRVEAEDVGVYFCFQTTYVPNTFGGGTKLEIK ?
4.97

log10 of kon for VH9 + VL4-N33H (antibody, V domains shown, Humanized 11-1F4 variant) VH: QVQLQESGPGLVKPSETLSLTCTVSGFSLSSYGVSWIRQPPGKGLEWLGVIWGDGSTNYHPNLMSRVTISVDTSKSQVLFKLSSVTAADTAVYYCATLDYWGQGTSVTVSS VL: DVVMTQSPLSLPVTLGQPASISCRSSQSLVHRHGNTYLHWFQQRPGQSPRLLIYKVSNRFSGVPDRFSGSGSGTDFTLKISRVEAEDVGVYFCFQTTYVPNTFGGGTKLEIK ?
4.12

log10 of kon for VH9-G55A + VL4 (antibody, V domains shown, Humanized 11-1F4 variant) VH: QVQLQESGPGLVKPSETLSLTCTVSGFSLSSYGVSWIRQPPGKGLEWLGVIWGDASTNYHPNLMSRVTISVDTSKSQVLFKLSSVTAADTAVYYCATLDYWGQGTSVTVSS VL: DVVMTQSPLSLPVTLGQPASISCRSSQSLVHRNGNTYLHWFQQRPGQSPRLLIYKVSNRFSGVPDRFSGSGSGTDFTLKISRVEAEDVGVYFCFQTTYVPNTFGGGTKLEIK ?
4.45

log10 of kon for VH9 + VL4-N33E (antibody, V domains shown, Humanized 11-1F4 variant) VH: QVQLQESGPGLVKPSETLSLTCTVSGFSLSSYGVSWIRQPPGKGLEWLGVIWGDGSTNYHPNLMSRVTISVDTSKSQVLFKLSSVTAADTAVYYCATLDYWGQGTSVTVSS VL: DVVMTQSPLSLPVTLGQPASISCRSSQSLVHREGNTYLHWFQQRPGQSPRLLIYKVSNRFSGVPDRFSGSGSGTDFTLKISRVEAEDVGVYFCFQTTYVPNTFGGGTKLEIK ?
4.09

log10 of kon for VH9-M64V + VL4 (antibody, V domains shown, Humanized 11-1F4 variant) VH: QVQLQESGPGLVKPSETLSLTCTVSGFSLSSYGVSWIRQPPGKGLEWLGVIWGDGSTNYHPNLVSRVTISVDTSKSQVLFKLSSVTAADTAVYYCATLDYWGQGTSVTVSS VL: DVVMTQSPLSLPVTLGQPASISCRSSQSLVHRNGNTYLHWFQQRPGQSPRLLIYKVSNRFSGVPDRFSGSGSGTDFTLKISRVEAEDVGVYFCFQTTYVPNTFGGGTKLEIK ?
4.38

log10 of kon for VH9-D54Q + VL4 (antibody, V domains shown, Humanized 11-1F4 variant) VH: QVQLQESGPGLVKPSETLSLTCTVSGFSLSSYGVSWIRQPPGKGLEWLGVIWGQGSTNYHPNLMSRVTISVDTSKSQVLFKLSSVTAADTAVYYCATLDYWGQGTSVTVSS VL: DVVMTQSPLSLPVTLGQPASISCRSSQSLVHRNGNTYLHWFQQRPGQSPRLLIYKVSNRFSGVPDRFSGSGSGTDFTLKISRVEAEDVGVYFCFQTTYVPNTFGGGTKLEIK ?
3.59

log10 of kon for VH9 + VL4-G34A (antibody, V domains shown, Humanized 11-1F4 variant) VH: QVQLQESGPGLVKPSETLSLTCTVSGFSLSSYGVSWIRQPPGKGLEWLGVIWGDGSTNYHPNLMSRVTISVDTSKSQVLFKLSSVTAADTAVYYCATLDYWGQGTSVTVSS VL: DVVMTQSPLSLPVTLGQPASISCRSSQSLVHRNANTYLHWFQQRPGQSPRLLIYKVSNRFSGVPDRFSGSGSGTDFTLKISRVEAEDVGVYFCFQTTYVPNTFGGGTKLEIK ?
4.77

log10 of kon for VH9-M64A + VL4 (antibody, V domains shown, Humanized 11-1F4 variant) VH: QVQLQESGPGLVKPSETLSLTCTVSGFSLSSYGVSWIRQPPGKGLEWLGVIWGDGSTNYHPNLASRVTISVDTSKSQVLFKLSSVTAADTAVYYCATLDYWGQGTSVTVSS VL: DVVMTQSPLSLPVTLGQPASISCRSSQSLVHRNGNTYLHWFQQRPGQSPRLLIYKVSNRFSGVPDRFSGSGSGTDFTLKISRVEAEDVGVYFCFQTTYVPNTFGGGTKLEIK ?
4.89

log10 of kon for VH9/VL4 (antibody, V domains shown, Humanized 11-1F4; also called VH9/VL4 parent) VH: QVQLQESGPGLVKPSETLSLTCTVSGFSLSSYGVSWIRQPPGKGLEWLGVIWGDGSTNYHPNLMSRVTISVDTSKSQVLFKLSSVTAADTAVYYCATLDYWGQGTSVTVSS VL: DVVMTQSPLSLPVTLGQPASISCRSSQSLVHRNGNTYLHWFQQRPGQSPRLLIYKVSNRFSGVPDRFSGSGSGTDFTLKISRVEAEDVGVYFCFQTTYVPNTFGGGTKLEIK ?
4.78
